Assay: in vitro
Set-up: Viability of infected HeLa host cells, resazurin conversion, bulk resorufin fluorescence relative to DMSO
Conditions: human, hela cells; bulk resorufin, mean of 2
readout-label: viability at 28.5 h, 10 µM (%)
Value expressed in %; do not type the unit.

// worked examples, viability at 28.5 h, 10 µM included
{"entry-smiles": "CCc1nnc(NS(=O)(=O)c2ccc(N/C=C3\\C(=O)N(c4ccc(C)cc4)N=C3C)cc2)s1", "unit-annotation": "%", "obs-value": 91.7}
{"entry-smiles": "Cc1cccc(Nc2nc(C)cc3n[nH]c(=O)n23)c1", "unit-annotation": "%", "obs-value": 81.5}
{"entry-smiles": "COc1ccc(C=CC(=O)Nc2sc3c(c2C(=O)O)CCCC3)cc1OC", "unit-annotation": "%", "obs-value": 89.7}
{"entry-smiles": "Cc1noc(NS(=O)(=O)c2ccc(NC(=O)COc3ccc(Cl)cc3Cl)cc2)c1C", "unit-annotation": "%", "obs-value": 100}
{"entry-smiles": "O=C(c1cccs1)N1C[C@H](c2ccc(F)cc2)[C@H]2CN(Cc3ccccc3)CC[C@H]21", "unit-annotation": "%", "obs-value": 95.5}

Bench note: what viability at 28.5 h, 10 µM did `Cc1cc(OCC(=O)Nc2ccc(S(=O)(=O)Nc3onc(C)c3C)cc2)cc(C)c1Cl` show?
117

Reported viability at 28.5 h, 10 µM, compound `Cc1noc(NS(=O)(=O)c2ccc(NC(=O)COc3ccccc3Br)cc2)c1C` : ____
95.3

Any idea what its viability at 28.5 h, 10 µM is? The compound is `COc1cccc(CNc2ccc(N3CCOCC3)cc2)c1OCc1ccccc1F`
90.9

Which viability at 28.5 h, 10 µM is listed for `COc1ccc(N2CCN(C(=O)c3ccc([N+](=O)[O-])o3)CC2)cc1` ?
125

----------
Assay: in vitro
Settings: human, hela cells, % viability
Each item that follows carries a reported viability at 28.5 h, 10 µM.
Express your answer in %, writing the number without its unit.

{"compound": "O=C(O)c1ccc(N2CCCCS2(=O)=O)cc1Cl", "viability at 28.5 h, 10 µM (%)": 84.5}
{"compound": "Nc1n[nH]c(SCC(=O)N2CCN(C(c3ccccc3)c3ccccc3)CC2)n1", "viability at 28.5 h, 10 µM (%)": 86.5}

I'd like to know its viability at 28.5 h, 10 µM. The compound in question is O=C(C1CC2C=CC1C21CC1)N1CCC(Oc2cccc(F)c2)CC1 (centres unmarked)
85.4

Name the recorded viability at 28.5 h, 10 µM for Cn1ccnc1C1(O)CC2CCC(C1)N2C(=O)c1ccc(Cl)cc1 (centres unmarked) .
94.2

Give the measured viability at 28.5 h, 10 µM of Clc1ccc(OC/C=C2\Oc3ccc(Cl)cc3C2N2CCOCC2)c(Cl)c1 (centres unmarked) .
94.5

What value of viability at 28.5 h, 10 µM has been reported for the following compound? O=C(CCS(=O)(=O)c1ccccc1)Nc1cccnc1N1CCNCC1 [CBK028262T]
103

----------
Assay: in vitro
Conditions: human, hela cells, % viability
viability at 28.5 h, 10 µM values, listed per item
Give just the numeric value; % need not be written.

{"compound": "CN1CCN(S(=O)(=O)c2ccc(Br)cc2C(F)(F)F)CC1", "unit-annotation": "%", "viability at 28.5 h, 10 µM": 90.7}
{"compound": "CN(C)CCCN1C(=O)C(O)=C(C(=O)c2ccc(F)cc2)C1c1ccco1 (stereo not shown)", "unit-annotation": "%", "viability at 28.5 h, 10 µM": 94.6}
{"compound": "O=C(c1ccco1)N1CCN(C(=O)C(c2ccccc2)c2ccccc2)CC1", "unit-annotation": "%", "viability at 28.5 h, 10 µM": 88.9}
{"compound": "Cc1nc(-c2ccsc2)sc1C(=O)NC1CCCN(c2ncccn2)C1 (stereo not shown)", "unit-annotation": "%", "viability at 28.5 h, 10 µM": 87.6}
{"compound": "O=C(NC(c1ccccc1)c1ccco1)C1CCN(C(=S)NCCc2ccccc2)CC1 (stereo not shown)", "unit-annotation": "%", "viability at 28.5 h, 10 µM": 94.4}
{"compound": "O=C(Nc1nnc(C2=COCCO2)o1)c1cccc(F)c1", "unit-annotation": "%", "viability at 28.5 h, 10 µM": 85.3}
{"compound": "COc1ccc(NC(=O)CCSCCC(=O)O)cc1S(=O)(=O)N1CCCCC1", "unit-annotation": "%", "viability at 28.5 h, 10 µM": 80.3}
{"compound": "C=CCNS(=O)(=O)c1ccc(NC(=O)Nc2ccc(Cl)cc2)cc1", "unit-annotation": "%", "viability at 28.5 h, 10 µM": 101}
{"compound": "CCOC(=O)N/N=C(/C)c1ccc(Br)s1", "unit-annotation": "%", "viability at 28.5 h, 10 µM": 93.5}
{"compound": "O=C(CC1CCN(C(=O)Cc2ccccc2)CC1)Nc1nc2c(s1)CCCCC2", "unit-annotation": "%", "viability at 28.5 h, 10 µM": 90.3}

Find the recorded viability at 28.5 h, 10 µM belonging to O=C(O)c1nc2n(n1)C(C(F)(F)F)CC(c1cccs1)N2 (stereo not shown) and report it.
97

Look up viability at 28.5 h, 10 µM for this compound: `CN(C)S(=O)(=O)N1CCN(c2ccc([N+](=O)[O-])c(NC3CC3)c2)CC1`
87

Which measured viability at 28.5 h, 10 µM value corresponds to `Cc1cc(=O)n2c(-c3ccc(NS(=O)(=O)c4cccnc4)cc3)csc2n1` ?
91.6

----------
Assay: in vitro
Settings: human, hela cells, % viability
Classify: true (1) when viability at 28.5 h, 10 µM is strictly less than 90%; false (0) when viability at 28.5 h, 10 µM is not.

Sample answers from the record:
{"molecule": "COc1cc(CNC(=O)c2ccc(O)nc2)ccc1OCc1ccncc1 [CBK298297]", "category-label": "false (0)"}
{"molecule": "[O-][n+]1c2c([n+]([O-])c3c1CCCC3)CCCCC2 [CBK263586]", "category-label": "false (0)"}
{"molecule": "CC(C)NC(=O)N1CCC[C@@H](O)[C@H](NC(=O)c2ccc(OCc3ccccc3)cc2)C1 [CBK289063]", "category-label": "false (0)"}
{"molecule": "Cc1cc(SCC(C)C)n2ncnc2n1 [CBK261808]", "category-label": "false (0)"}
{"molecule": "CSc1nc(C)c(CCC(=O)N(C)Cc2c(C)nn(-c3ccccc3)c2C)c(=O)[nH]1 [CBK297925]", "category-label": "true (1)"}

Hello, is viability at 28.5 h, 10 µM of the following molecule strictly smaller than 90%? COc1ccc(/C=C(\C)C(=O)Nc2c(OC)cc(F)cc2OC2CCNCC2)cc1OC [CBK050353T]
false (0)

Record O=C(O)C12CC3CC(C(=O)O)(C1)CC(C(=O)O)(C3)C2 [CBK263442] : is its viability at 28.5 h, 10 µM strictly below 90%?
true (1)

Lab note: confirm whether the reported viability at 28.5 h, 10 µM for this molecule is below 90%, equality not counting. molecule: Cc1csc(Nc2cccc(C3CCCN3C(=O)CCOc3ccccc3C)n2)n1 (stereo not shown) [CBK285977]
false (0)

Threshold test, viability at 28.5 h, 10 µM < 90%: Cc1ccc2c(c1)cc(C)c1nn(CC(=O)N3CCCC3)c(=O)n12 [CBK283872]
false (0)

Given the entry COc1ccc(-c2nc(-c3ccc(C#N)cc3)cnc2N)cc1OC [CBK063885] , would its reported viability at 28.5 h, 10 µM be below 90%?
false (0)

----------
Assay: in vitro
Conditions: human, hela cells, % viability
Reported viability at 28.5 h, 10 µM values are given for each entry in this list.
All answers are understood in %, so give the number only.

Past entries and their recorded results:
{"entry-smiles": "O=[N+]([O-])c1cc(C(F)(F)F)ccc1NC(CO)(CO)CO", "viability at 28.5 h, 10 µM / %": 88.4}
{"entry-smiles": "O=C(CCCOc1ccccc1)N1CCN(c2cccc(Cl)c2)CC1", "viability at 28.5 h, 10 µM / %": 107}
{"entry-smiles": "Cc1ccc(-n2c(C)c([N+](=O)[O-])c3ccc(O)c(CN(C)C)c32)cc1", "viability at 28.5 h, 10 µM / %": 88.8}
{"entry-smiles": "CCCN1CCC(CNC(=O)Cn2ccc3ccc(F)cc32)CC1", "viability at 28.5 h, 10 µM / %": 88}

Entry `O=C1c2ccccc2C(=O)N1c1ccc(S(=O)(=O)NCCCO)c2ccccc12` has what viability at 28.5 h, 10 µM?
105

----------
Tested on: L. reuteri
Construct: DSM 20016
Experiment: microbe, parasite or virus in culture
Design: Microbial growth in liquid dilution assay, OD600 relative to DMSO control
Conditions: Limosilactobacillus reuteri; estimated IC50; read-out: L. reuteri, IC50 (µM) estimate
readout-label: IC50

{"entry-smiles": "O=C(N/N=C\\c1ccc([N+](=O)[O-])o1)c1nc(-c2ccccc2)cc(-c2ccccc2)n1", "readout-label": "IC50", "obs-value": "> 30 µM"}

// below: IC50 requested for another molecule
Sample `O=C(c1ccc(-c2ccc(F)cc2)o1)N1C[C@H]2CC[C@](O)(c3ccc(F)cc3)[C@H]2C1` — what was its IC50?
> 30 µM
